Experiment: melting temperature; fluorescence melt of hairpins on a sequencing array, two-state fit, raised by 9.35 °C to match UV melts
Details: sodium 0.088 M
Param label: returns criterion met when Tm < 50 °C, returns criterion not met otherwise, including exact equality.

INSERT INTO assay_data (residues, label_class) VALUES
  ('GGGAGCGAAAGCTCACCC ((((((....)))..)))', 'criterion not met'),
  ('GTCGTGAAAACGAC (((((....)))))', 'criterion not met'),
  ('GCATTGCGAAAGCACCGC ((..(((....)))..))', 'criterion met'),
  ('CGACCGGAAACGGCTCG ((((((....))).)))', 'criterion met'),
  ('GTCAGCGAAAGCTTCGAC ((((((....)))..)))', 'criterion met'),
  ('GCGGGGCCGAAAGGCCGC (((..(((....))))))', 'criterion not met'),
  ('GATCACCCATGTGATC ((((((....))))))', 'criterion not met'),
  ('GATCGAGCCATCGATC ((((((....))))))', 'criterion not met'),
  ('GTCCACGAAAGTGCGGAC ((((((....)))..)))', 'criterion met'),
  ('GGGGTGTCGAAAGACCCC (((..(((....))))))', 'criterion not met'),
  ('GTTTGCGAAAGCATCAAC ((((((....)))..)))', 'criterion met');
